# Test system: U87
# assay-overview: Cell proliferation assay (CCK8), fixed concentration, reference GBM cell line U87
# Format: cell-based, human
# experimental-setup: fixed test concentration per compound, Table 1 log[M]: Trequinsin −4.6, Fucoxanthin −4.8, PF04449613 −4, PF02545920 −4.6, TIC10 −5, PF04691502 −6.6, GSK1059615 −5.5, LY294002 −5, Axitinib −5, Temozolomide −5
Documented % Inhibiton U87 across a set of molecules
Write the value in % as a bare number.

// below: answered molecules
> print(dat)
                         chemical.structure  experimental.target  measurement
1  C[C@H](c1nc2c(cnn2C2CCOCC2)c(=O)[nH]1)N1CC(Oc2ccccc2)C1                  U87          −14
2  Cn1cc(-c2ccncc2)c(-c2ccc(OCc3ccc4ccccc4n3)cc2)n1                  U87           30
3     O=c1cc(N2CCOCC2)oc2c(-c3ccccc3)cccc12                  U87          −17
4  COc1cc2c(cc1OC)-c1c/c(=N\c3c(C)cc(C)cc3C)n(C)c(=O)n1CC2                  U87           11

Proceeding to the next molecule to report its % Inhibiton U87.
Lab note: COc1ccc(-c2cc3c(C)nc(N)nc3n([C@H]3CC[C@H](OCCO)CC3)c2=O)cn1 gave % Inhibiton U87 of 35
